biological target: prostaglandin D2 (PGD2) receptor 1 (DP1) (Homo sapiens); test: DP1 receptor cAMP agonist assay (HEK293T cells); format: cell-based; conditions: Table 22; relative to treprostinil EC50 values; * partial agonists or ambiguous dose-response curves
Sequence (Q13258 whole entry): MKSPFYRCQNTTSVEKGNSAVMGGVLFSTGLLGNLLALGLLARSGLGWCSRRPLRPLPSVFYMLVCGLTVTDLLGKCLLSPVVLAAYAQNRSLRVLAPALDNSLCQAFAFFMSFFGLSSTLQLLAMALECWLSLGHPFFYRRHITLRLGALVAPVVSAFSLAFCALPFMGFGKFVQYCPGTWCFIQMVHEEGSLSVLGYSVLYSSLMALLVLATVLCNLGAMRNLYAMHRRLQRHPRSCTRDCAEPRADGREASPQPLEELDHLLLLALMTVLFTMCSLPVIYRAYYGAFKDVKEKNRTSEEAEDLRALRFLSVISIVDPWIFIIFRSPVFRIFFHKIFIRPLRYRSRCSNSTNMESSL
One threshold, 90 x, splits the recorded DP1 Relative to Tre values: lower ones are Met, equal or higher ones are Not met.

1) CCCCCC(CCC1C(O)CC2Cc3c(cccc3OCC(=O)O)CC21)OC(=O)CC (centres unmarked) [Prodrug LV] :: Not met
2) CCCCCC(CCC1C(O)CC2Cc3c(cccc3OCC(=O)O)CC21)OCOC(=O)C(C)(C)C (centres unmarked) [Prodrug LII] :: Met
3) CCCCCC(CCC1C(O)CC2Cc3c(cccc3OCC(=O)O)CC21)OC(=O)COc1ccc(OC(F)(F)F)cc1 (centres unmarked) [Prodrug LXIV] :: Met
4) CCCCCC(CCC1C(O)CC2Cc3c(cccc3OCC(=O)O)CC21)OC(C)=O (centres unmarked) [Prodrug XLIII] :: Not met
5) CCCCCC(CCC1C(O)CC2Cc3c(cccc3OCC(=O)O)CC21)OC(=O)C12CC3CC(CC(C3)C1)C2 (centres unmarked) [Prodrug LXIX] :: Not met
6) CCCCCC(CCC1C(O)CC2Cc3c(cccc3OCC(=O)O)CC21)OP(=O)(O)O (centres unmarked) [Prodrug VI] :: Met
